# credit: ChEMBL document CHEMBL3044584

assay: Phytotoxicity against Oryza sativa (rice) assessed as growth inhibition at 10 g/a after 3 weeks in greenhouse conditions; format: organism-based; conditions: in vivo, read-out: GI
parameter: inhibition at 504 h

CCSc1c(C)on(C(=O)N(c2cccc(C(F)(F)F)c2)C(C)C)c1=O
< 10%
CCSc1c(C)on(C(=O)N(c2cccc([N+](=O)[O-])c2)C(C)C)c1=O
11%
C#CCSc1c(C)on(C(=O)N(c2ccc(Cl)cc2)C(C)C)c1=O
< 10%

Field: next molecule
Please look at this molecule and report its inhibition at 504 h: CCSc1c(C)on(C(=O)N(c2ccc(C)cc2)C(C)C)c1=O
< 10%

###

Reported inhibition at 504 h values follow for various compounds
assay: Phytotoxicity against Oryza sativa (rice) assessed as growth inhibition at 25 g/a after 3 weeks in greenhouse conditions; type: organism-based; conditions: in vivo, read-out: GI
Reply with just the number (in %).

Here's what some known entries look like.
CCSc1c(C)on(C(=O)N(c2ccc(F)cc2)C(C)C)c1=O
51
CCSc1c(C)on(C(=O)N(c2ccc(Cl)cc2)C(C)C)c1=O
11
C#CCSc1c(C)on(C(=O)N(c2ccc(Cl)cc2)C(C)C)c1=O
31

Tell me its inhibition at 504 h given Cc1on(C(=O)N(c2ccc(Cl)cc2)C(C)C)c(=O)c1SC(C)C as the entry.
31

Please give measured inhibition at 504 h of the following entry: CCSc1c(CC)on(C(=O)N(c2ccc(Cl)cc2)C(C)C)c1=O
31

Tell us which inhibition at 504 h value is on record for COCCSc1c(C)on(C(=O)N(c2ccc(Cl)cc2)C(C)C)c1=O
11

// Input: CCCSc1c(C)on(C(=O)N(c2ccc(Cl)cc2)C(C)C)c1=O . Output its inhibition at 504 h only.
31

Give the value of inhibition at 504 h reported for the following: CCSc1c(C)on(C(=O)N(C)c2ccc(Cl)cc2)c1=O
11

###

experiment: Phytotoxicity against Oryza sativa (rice) assessed as growth inhibition at 10 g/a after 3 weeks in greenhouse conditions; format: organism-based; settings: in vivo, read-out: GI
parameter: inhibition at 504 h (%)
A number alone suffices; assume %.

CCSc1c(C)on(C(=O)N(c2ccc(C#N)cc2)C(C)C)c1=O
51
CCCSc1c(C)on(C(=O)N(c2ccc(F)cc2F)C(C)C)c1=O
11
CCCN(C(=O)n1oc(C)c(SCC)c1=O)c1ccc(Cl)cc1
11

Answer with reported inhibition at 504 h of Cc1on(C(=O)N(c2ccc(Cl)cc2)C(C)C)c(=O)c1SC(F)F
11

Give the measured inhibition at 504 h for CCSc1c(C)on(C(=O)N(CC)c2ccc(Cl)cc2)c1=O
31

###

Parameter inhibition of growth at 2500 g/ha: see the listing below.
test system: Eleocharis acicularis; test: Pre-emergent herbicidal activity against Eleocharis acicularis assessed as growth inhibition at 25 g/a after 3 weeks in greenhouse conditions; format: functional; details: pre-emergence, 504 h, read-out: GI
Report as a plain number; the unit % is understood.

Cc1on(C(=O)N(c2ccc(Cl)cc2)C(C)C)c(=O)c1SC(C)C
71
C#CCSc1c(C)on(C(=O)N(c2ccc(Cl)cc2)C(C)C)c1=O
51
COCCSc1c(C)on(C(=O)N(c2ccc(Cl)cc2)C(C)C)c1=O
71
CCc1on(C(=O)N(c2ccc(Cl)cc2)C(C)C)c(=O)c1SC(C)C
51
CCSc1c(CC)on(C(=O)N(c2ccc(Cl)cc2)C(C)C)c1=O
71

Switching to the query record.
Could you please provide reported inhibition of growth at 2500 g/ha for CCSc1c(C)on(C(=O)N(C)c2ccc(Cl)cc2)c1=O ? Thanks!
71

###

system: Eleocharis acicularis; assay: Pre-emergent herbicidal activity against Eleocharis acicularis assessed as growth inhibition at 25 g/a after 3 weeks in greenhouse conditions; type: functional; conditions: pre-emergence, 504 h, read-out: GI
The following compounds are listed with their measured inhibition of growth at 2500 g/ha values.

Examples from the recorded data:
CCCSc1c(C)on(C(=O)N(c2ccc(Cl)cc2)C(C)C)c1=O
> 91%
CCSc1c(C)on(C(=O)N(c2ccc(Cl)cc2)C(C)C)c1=O
> 91%

Report inhibition of growth at 2500 g/ha on Eleocharis acicularis for this entry: CCSc1c(C)on(C(=O)N(c2ccc(F)cc2)C(C)C)c1=O
> 91%
